Hello, the source for this data is ChEMBL document CHEMBL1126084, in case you need it.

- System: Human alphaherpesvirus 1
- test-method-notes: Inhibitory index against HSV-1 ribonucleotide reductase
readout-kind: Inhibitory index

Consider the following illustrative entries.
{"columns": ["chemical-string", "endpoint-value"],
 "data": [
  ["O=C(NNC(=S)N/N=C/c1ccccn1)Nc1ccccc1Cl", 27],
  ["C/N=C(\\S)N/N=C(\\S)N/N=C(\\C)c1ccccn1", 5],
  ["C/C(=N\\N=C(/S)N/N=C(\\S)Nc1cccc(C#N)c1)c1ccccn1", 32]
]}

P. COc1ccc([N+](=O)[O-])cc1/N=C(\S)N/N=C(\S)N/N=C(\C)c1ccccn1
Q. C/C(=N\N=C(/S)N/N=C(\S)Nc1cccc(C(F)(F)F)c1)c1ccccn1
R. C/C(=N\N=C(/S)N/N=C(\S)Nc1ccc(C)cc1)c1ccccn1
S. C/C(=N\NC(=O)NNC(=O)Nc1ccccc1Cl)c1ccccn1
Order the records so the highest Inhibitory index appears first and the lowest last. Returns: the labels arranged in the requested order. P, Q, R, S
(P: 71, Q: 40, R: 21, S: 0)

---

- assay-system: Ribonucleoside-diphosphate reductase RR1 (Homo sapiens) (UniProt P23921+Q7LG56+P31350)
- test-method-notes: Inhibitory index against human ribonucleotide reductase calculated as, [1+k inact/f+0.01] where f = 1-% inhibition/100).
- Type: protein-complex assay
readout-kind: Inhibitory index

Consider the following illustrative entries.
{"columns": ["chemical-string", "Inhibitory index"],
 "data": [
  ["C/C(=N\\N=C(/S)N/N=C(\\S)NC12CC3CC(CC(C3)C1)C2)c1ccccn1", 1.1],
  ["COc1ccc(Cl)cc1/N=C(\\S)N/N=C(\\S)N/N=C(\\C)c1ccccn1", 1.2],
  ["C/C(=N\\N=C(/S)N/N=C(\\S)Nc1cccc(C)c1)c1ccccn1", 1.1],
  ["C/C(=N\\N=C(/S)N/N=C(\\S)NCCN1CCOCC1)c1ccccn1", 1],
  ["C/C(=N\\N=C(/S)N/N=C(\\S)Nc1cccnc1)c1ccccn1", 0.73]
]}

a. C/C(=N\N=C(/S)N/N=C(\S)Nc1ccncc1)c1ccccn1
b. C/C(=N\N=C(/S)N/N=C(\S)NCCCN1CCOCC1)c1ccccn1
c. C/C(=N\N=C(/S)N/N=C(\S)Nc1ccccc1C)c1ccccn1
Hey, quick one: sort these by Inhibitory index, low to high? Returns: the labels arranged in the requested order. b, c, a

1. C/C(=N\N=C(/S)NNC(=S)NC(=O)c1ccccc1)c1ccccn1
2. C/C(=N\N=C(/S)N/N=C(\S)Nc1ccccc1)c1ccccn1
Given the listed records, identify the one among 1 and 2 with higher Inhibitory index. Identify your selection by its label. 2
(2: 8.5, 1: 5.4)

---

- Test system: Human alphaherpesvirus 1
- test-method-notes: Inactivation of HSV-1 ribonucleotide reductase at rate constant K inact
readout-kind: kinact (h⁻¹)

Consider the following illustrative entries.
{"columns": ["chemical-string", "unit-name", "kinact"],
 "data": [
  ["COc1ccccc1/N=C(\\S)N/N=C(\\S)N/N=C(\\C)c1ccccn1", "h⁻¹", 23],
  ["C/C(=N\\N=C(/S)N/N=C(\\S)Nc1ccc(C(F)(F)F)cc1)c1ccccn1", "h⁻¹", 33],
  ["C/C(=N\\NC(=O)N/N=C(\\S)Nc1ccccc1Cl)c1ccccn1", "h⁻¹", 5],
  ["C/C(=N\\N=C(/S)N/N=C(\\S)Nc1cc(Cl)c(Cl)cc1Cl)c1ccccn1", "h⁻¹", 16],
  ["Cc1cccc(/C=N/N=C(\\S)N/N=C(\\S)Nc2ccccc2Cl)n1", "h⁻¹", 16],
  ["C/C(=N\\N=C(/S)N/N=C(\\S)Nc1ccccc1Cl)c1cccc[n+]1[O-]", "h⁻¹", 1],
  ["O=C(NNC(=S)N/N=C/c1ccccn1)Nc1ccccc1Cl", "h⁻¹", 23],
  ["C/C(=N\\N=C(/S)N/N=C(\\S)Nc1cccc(Br)c1)c1ccccn1", "h⁻¹", 40]
]}

a. COc1c(Cl)cccc1/N=C(\S)N/N=C(\S)N/N=C(\C)c1ccccn1
b. C/C(=N\N=C(/S)N/N=C(\S)Nc1cccc(Cl)c1)c1ccccn1
c. C/N=C(\S)N/N=C(\S)N/N=C(\C)c1ccccn1
d. C/C(=N\N=C(/S)N/N=C(\S)NC1CCCC1)c1ccccn1
e. C/C(=N\N=C(/S)N/N=C(\S)Nc1cc(Cl)ccc1Cl)c1ccccn1
Order the records so the highest kinact appears first and the lowest last. Returns: the labels arranged in the requested order. e, b, a, d, c
(e: 55 h⁻¹, b: 36 h⁻¹, a: 25 h⁻¹, d: 12 h⁻¹, c: 4 h⁻¹)

---

- assay-system: Ribonucleoside-diphosphate reductase RR1 (Homo sapiens) (UniProt P23921+Q7LG56+P31350)
- test-method-notes: Inhibition of human ribonucleotide reductase
- Format: protein-complex assay
- Design: concentration or dose not given beside the values
- condition-context: concentration not given here
readout-kind: inhibition (%)

{"columns": ["chemical-string", "assay-system", "inhibition [%]"],
 "data": [
  ["C/C(=N\\N=C(/S)N/N=C(\\S)Nc1ccccn1)c1ccccn1", "Ribonucleoside-diphosphate reductase RR1 (Homo sapiens) (UniProt P23921+Q7LG56+P31350)", 67],
  ["C/N=C(\\S)N/N=C(\\S)N/N=C(\\C)c1ccccn1", "Ribonucleoside-diphosphate reductase RR1 (Homo sapiens) (UniProt P23921+Q7LG56+P31350)", 19],
  ["C/C(=N\\N=C(/S)N/N=C(\\S)Nc1ccc(Cl)c([N+](=O)[O-])c1)c1ccccn1", "Ribonucleoside-diphosphate reductase RR1 (Homo sapiens) (UniProt P23921+Q7LG56+P31350)", 20]
]}

A. C/C(=N\N=C(/S)N/N=C(\S)Nc1cccc(C(F)(F)F)c1)c1ccccn1
B. C/C(=N\N=C(/S)N/N=C(\S)Nc1ccc(I)cc1)c1ccccn1
Given the listed records, identify the one among A and B with higher inhibition. Identify your selection by its label. A
(A: 31%, B: 5%)

A. C/C(=N\N=C(/S)N/N=C(\S)NC1CCCC1)c1ccccn1
B. C/C(=N\N=C(/S)N/N=C(\S)Nc1cc(Cl)c(Cl)cc1Cl)c1ccccn1
C. C/C(=N\N=C(/S)N/N=C(\S)Nc1cccc(Br)c1)c1ccccn1
Order the records so the highest inhibition appears first and the lowest last. Returns: the labels arranged in the requested order. A, C, B
(A: 64%, C: 21%, B: 3%)

1. C/C(=N\N=C(/S)N/N=C(\S)Nc1ccc(Cl)cc1)c1ccccn1
2. CC(C)C/C(=N\N=C(/S)N/N=C(\S)Nc1ccccc1Cl)c1ccccn1
3. C/C(=N\N=C(/S)N/N=C(\S)Nc1cccc(Cl)c1)c1ccccn1
4. C/C(=N\N=C(/S)N/N=C(\S)Nc1ccccc1Br)c1ccccn1
Order the records so the highest inhibition appears first and the lowest last. Returns: the labels arranged in the requested order. 1, 3, 2, 4
(1: 73%, 3: 48%, 2: 25%, 4: 14%)

P. C/C(=N\N=C(/S)N/N=C(\S)Nc1cccc(C#N)c1)c1ccccn1
Q. C/C(=N\N=C(/S)N/N=C(\S)Nc1ccc(Cl)cc1C)c1ccccn1
Please compare: P and Q . Report which one has the smaller inhibition value. Identify your selection by its label. Q

I. O=C(NNC(=S)N/N=C/c1ccccn1)Nc1ccccc1Cl
II. S=C(N/N=C/c1ccccn1)NNC(=S)Nc1ccccc1Cl
Given the listed records, identify the one among I and II with higher inhibition. Identify your selection by its label. I

1. Cc1cccc(/C=N/N=C(\S)N/N=C(\S)Nc2ccccc2Cl)n1
2. COc1ccc([N+](=O)[O-])cc1/N=C(\S)N/N=C(\S)N/N=C(\C)c1ccccn1
Given the listed records, identify the one among 1 and 2 with higher inhibition. Identify your selection by its label. 1

1. COc1ccc(N/C(S)=N/N=C(\S)N/N=C(\C)c2ccccn2)cc1
2. C/C(=N\N=C(/S)N/N=C(\S)Nc1ccc(C(F)(F)F)cc1)c1ccccn1
Given the listed records, identify the one among 1 and 2 with higher inhibition. Identify your selection by its label. 1

a. C/C(=N\N=C(/S)N/N=C(\S)Nc1ccc(C)cc1)c1ccccn1
b. C/C(=N\N=C(/S)N/N=C(\S)Nc1cccc(Cl)c1Cl)c1ccccn1
Please compare: a and b . Report which one has the smaller inhibition value. Identify your selection by its label. b

---

- Tested on: Human alphaherpesvirus 1
- test-method-notes: Inhibition of HSV-1 ribonucleotide reductase
- Parameters: concentration or dose not given beside the values
- condition-context: concentration not given here
readout-kind: inhibition (%)

Consider the following illustrative entries.
{"columns": ["chemical-string", "inhibition / %"],
 "data": [
  ["C/C(=N\\N=C(/S)N/N=C(\\S)NC1CCCC1)c1ccccn1", 7],
  ["C/C(=N\\N=C(/S)N/N=C(\\S)Nc1cccc(I)c1)c1ccccn1", 27],
  ["C/C(=N\\N=C(/S)N/N=C(\\S)Nc1ccc([N+](=O)[O-])cc1)c1ccccn1", 14],
  ["C/C(=N\\N=C(/S)N/N=C(\\S)Nc1ccc(C#N)cc1)c1ccccn1", 0],
  ["C/C(=N\\N=C(/S)N/N=C(\\S)Nc1ccccc1Br)c1ccccn1", 38],
  ["C/C(=N\\N/C(S)=N/N=C(\\S)N(C)C)c1ccccn1", 39]
]}

I. C/C(=N\N=C(/S)N/N=C(\S)Nc1cc(Cl)ccc1Cl)c1ccccn1
II. C/C(=N\N=C(/S)N/N=C(\S)Nc1ccc(Br)cc1)c1ccccn1
III. C/C(=N\N=C(/S)N/N=C(\S)Nc1ccccc1Cl)c1ccccn1
Hey, quick one: sort these by inhibition, low to high? Returns: the labels arranged in the requested order. III, I, II
(III: 0%, I: 8%, II: 23%)
